experiment: Cytotoxic MTS assay, BJLD; type: cell-based, human; settings: human, BJLD cells (fibroblasts, doxorubicin-resistant); MTS, 72 h of incubation
measurement-label: IC50 at 72 h (µM)
# value in µM; strip the unit string

Sample answers from the record:
{"compound": "Cc1cc(C)cc(C(=O)OCC[S+]([O-])c2ccnc3cc(Cl)ccc23)c1 (stereo not shown)", "IC50 at 72 h / µM": 28.5}
{"compound": "COc1cc(C(=O)OCCS(=O)(=O)c2cc[n+]([O-])c3cc(Cl)ccc23)cc(OC)c1OC", "IC50 at 72 h / µM": 11.9}
{"compound": "COc1ccc(C(=O)OCC[S+]([O-])c2ccnc3cc(Cl)ccc23)cc1[N+](=O)[O-] (stereo not shown)", "IC50 at 72 h / µM": 27.5}

Entry COc1ccc(C(=O)OCCC[S+]([O-])c2ccnc3cc(Cl)ccc23)cc1 (stereo not shown) — recorded IC50 at 72 h = 28.2

====

Here the recorded DNA Synthesis (% positive of cells) is given for each entry.
tested on: CCRF-CEM lymphoblasts; test: BrDU incorporation analysis (DNA synthesis); format: cell-based, human; conditions: 24 h, 1 × IC50 (first value of cell)
# value in %; strip the unit string

Sample answers from the record:
{"compound-smiles": "COc1ccc(C(=O)OCCS(=O)(=O)c2cc[n+]([O-])c3cc(Cl)ccc23)cc1[N+](=O)[O-]", "numeric-readout": 34.45}
{"compound-smiles": "COc1ccccc1C(=O)OCCS(=O)(=O)c1cc[n+]([O-])c2cc(Cl)ccc12", "numeric-readout": 41.27}
{"compound-smiles": "COc1ccc(C(=O)OCCS(=O)(=O)c2cc[n+]([O-])c3cc(Cl)ccc23)cc1", "numeric-readout": 41.06}

Entry COc1ccc(OC)c(C(=O)OCCS(=O)(=O)c2cc[n+]([O-])c3cc(Cl)ccc23)c1 — recorded DNA Synthesis (% positive of cells) = 36.82

Entry O=C(OCCS(=O)(=O)c1cc[n+]([O-])c2cc(Cl)ccc12)c1ccc(C(F)(F)F)cc1 — recorded DNA Synthesis (% positive of cells) = 27.07

Entry COc1cc(OC)c(C(=O)OCCS(=O)(=O)c2cc[n+]([O-])c3cc(Cl)ccc23)cc1OC — recorded DNA Synthesis (% positive of cells) = 39.87

Entry Cc1ccc([N+](=O)[O-])c(C(=O)OCCS(=O)(=O)c2cc[n+]([O-])c3cc(Cl)ccc23)c1 — recorded DNA Synthesis (% positive of cells) = 35.58

====

Here the recorded IC50 is given for each entry.
Test system: CCRF-CEM (childhood T cell acute lymphoblastic leukemia)
Test: Cytotoxic MTS assay, CCRF-CEM
Assay type: cell-based, human
Conditions: Homo sapiens, CCRF-CEM; MTS, 72 h of incubation; read-out: Cytotoxic activity IC50, CCRF-CEM
Method: In vitro cytotoxic activity of final compounds 5–82 was evaluated after 3 days of incubation against eight cell lines derived from human solid tumors including lung (A549 cells) and colon (HCT116 and HCT116p53−/−) carcinomas, as well as leukemia cell lines (CCRF-CEM, CEM-DNR, K562, and K562-TAX) and osteosarcoma (U2OS cells). […] Cytotoxic activity was determined by MTS assay following 72 h of incubation. […]
Include the unit right after the number.

Entry [O-][S+](CCO)c1ccnc2cc(Cl)ccc12 (centres unmarked) — recorded IC50 = 4520 nM

====

assay: Cytotoxic MTS assay, MRC-5LD; format: cell-based, human; conditions: human; MTS, 72 h of incubation; read-out: Cytotoxic activity IC50, MRC5-LD
measurement-label: IC50 at 72 h (µM)
# value in µM; strip the unit string

Sample answers from the record:
{"compound": "Cc1ccc([N+](=O)[O-])c(C(=O)OCCC[S+]([O-])c2ccnc3cc(Cl)ccc23)c1 (centres unmarked) [Compound 60]", "IC50 at 72 h / µM": 19.8}
{"compound": "COc1ccc(C(=O)OCC[S+]([O-])c2ccnc3cc(Cl)ccc23)cc1[N+](=O)[O-] (centres unmarked) [Compound 48]", "IC50 at 72 h / µM": 24}

# evaluate next
Entry Cc1cc(C)cc(C(=O)OCC[S+]([O-])c2ccnc3cc(Cl)ccc23)c1 (centres unmarked) [Compound 50] — recorded IC50 at 72 h = 22.3

====

Here the recorded pIC50 is given for each entry.
tested on: K562 (chronic myeloid leukemia); assay: Cytotoxic MTS assay, K562; assay type: cell-based, human
Schema: pIC50 number; meaning minus log10 of the concentration expressed in molar units.

Sample answers from the record:
{"compound": "O=C(OCCCS(=O)(=O)c1cc[n+]([O-])c2cc(Cl)ccc12)c1ccc(C(F)(F)F)cc1 [Compound 82]", "numeric-readout": 5.20}
{"compound": "COc1ccccc1C(=O)OCCCS(=O)(=O)c1cc[n+]([O-])c2cc(Cl)ccc12 [Compound 78]", "numeric-readout": 5.13}
{"compound": "COc1cc(OC)c(C(=O)OCCS(=O)(=O)c2cc[n+]([O-])c3cc(Cl)ccc23)cc1OC [Compound 66]", "numeric-readout": 5.28}
{"compound": "Cc1ccc([N+](=O)[O-])c(C(=O)OCCCS(=O)(=O)c2cc[n+]([O-])c3cc(Cl)ccc23)c1 [Compound 80]", "numeric-readout": 5.17}

The compound COc1ccc(C(=O)OCCS(=O)(=O)c2cc[n+]([O-])c3cc(Cl)ccc23)cc1[N+](=O)[O-] [Compound 69] , tested on K562 (chronic myeloid leukemia), showed pIC50 of 5.19

The compound COc1cc(C(=O)OCCCS(=O)(=O)c2cc[n+]([O-])c3cc(Cl)ccc23)cc(OC)c1OC [Compound 77] , tested on K562 (chronic myeloid leukemia), showed pIC50 of 5.12

The compound COc1ccc(C(=O)OCCCS(=O)(=O)c2cc[n+]([O-])c3cc(Cl)ccc23)cc1 [Compound 73] , tested on K562 (chronic myeloid leukemia), showed pIC50 of 5.66

====

test system: MRC-5 (noncancerous human lung fibroblasts); test: Cytotoxic MTS assay, MRC-5; assay type: cell-based
measurement-label: IC50

Entry COc1ccc(OC)c(C(=O)OCCS(=O)(=O)c2cc[n+]([O-])c3cc(Cl)ccc23)c1 — recorded IC50 = 4.95 µM

Entry Cc1cc(C)cc(C(=O)OCCCS(=O)(=O)c2cc[n+]([O-])c3cc(Cl)ccc23)c1 — recorded IC50 = 46.7 µM

Entry COc1ccc(C(=O)OCCCS(=O)(=O)c2cc[n+]([O-])c3cc(Cl)ccc23)cc1 — recorded IC50 = 21.9 µM

Entry COc1cc(C(=O)OCCCS(=O)(=O)c2cc[n+]([O-])c3cc(Cl)ccc23)cc(OC)c1OC — recorded IC50 = 25.6 µM

Entry COc1cc(OC)c(C(=O)OCCCS(=O)(=O)c2cc[n+]([O-])c3cc(Cl)ccc23)cc1OC — recorded IC50 = 22.5 µM

Entry O=C(OCCCS(=O)(=O)c1cc[n+]([O-])c2cc(Cl)ccc12)c1ccc(C(F)(F)F)cc1 — recorded IC50 = 23.7 µM

Entry COc1ccc(C(=O)OCCCS(=O)(=O)c2cc[n+]([O-])c3cc(Cl)ccc23)cc1[N+](=O)[O-] — recorded IC50 = 20.6 µM

Entry COc1ccccc1C(=O)OCCS(=O)(=O)c1cc[n+]([O-])c2cc(Cl)ccc12 — recorded IC50 = 4.92 µM

Entry COc1cccc(C(=O)OCCCS(=O)(=O)c2cc[n+]([O-])c3cc(Cl)ccc23)c1OC — recorded IC50 = 20.4 µM

Entry COc1cccc(C(=O)OCCS(=O)(=O)c2cc[n+]([O-])c3cc(Cl)ccc23)c1OC — recorded IC50 = 6.08 µM

Entry Cc1ccc([N+](=O)[O-])c(C(=O)OCCCS(=O)(=O)c2cc[n+]([O-])c3cc(Cl)ccc23)c1 — recorded IC50 = 20 µM

Entry COc1ccc(C(=O)OCCS(=O)(=O)c2cc[n+]([O-])c3cc(Cl)ccc23)cc1[N+](=O)[O-] — recorded IC50 = 8.41 µM

Entry COc1cc(OC)c(C(=O)OCCS(=O)(=O)c2cc[n+]([O-])c3cc(Cl)ccc23)cc1OC — recorded IC50 = 5.07 µM

Entry Cc1ccc([N+](=O)[O-])c(C(=O)OCCS(=O)(=O)c2cc[n+]([O-])c3cc(Cl)ccc23)c1 — recorded IC50 = 22.9 µM

Entry COc1ccccc1C(=O)OCCCS(=O)(=O)c1cc[n+]([O-])c2cc(Cl)ccc12 — recorded IC50 = 22.6 µM

====

system: U2OS (osteosarcoma); test: Cytotoxic MTS assay, U2OS; assay type: cell-based, human
// thresholds for IC50 classes: LOW (below 6 µM), MEDIUM (6 µM to below 8 µM), HIGH (8 µM or more)

{"molecule": "COc1ccccc1C(=O)OCCS(=O)(=O)c1cc[n+]([O-])c2cc(Cl)ccc12 [Compound 68]", "experimental-target": "U2OS (osteosarcoma)", "label": "MEDIUM"}
{"molecule": "O=C(OCCCS(=O)(=O)c1cc[n+]([O-])c2cc(Cl)ccc12)c1ccc(C(F)(F)F)cc1 [Compound 82]", "experimental-target": "U2OS (osteosarcoma)", "label": "LOW"}
{"molecule": "O=C(OCCS(=O)(=O)c1cc[n+]([O-])c2cc(Cl)ccc12)c1ccc(C(F)(F)F)cc1 [Compound 72]", "experimental-target": "U2OS (osteosarcoma)", "label": "HIGH"}
{"molecule": "COc1cccc(C(=O)OCCS(=O)(=O)c2cc[n+]([O-])c3cc(Cl)ccc23)c1OC [Compound 64]", "experimental-target": "U2OS (osteosarcoma)", "label": "MEDIUM"}
{"molecule": "COc1cc(OC)c(C(=O)OCCCS(=O)(=O)c2cc[n+]([O-])c3cc(Cl)ccc23)cc1OC [Compound 76]", "experimental-target": "U2OS (osteosarcoma)", "label": "HIGH"}
{"molecule": "COc1ccc(C(=O)OCCS(=O)(=O)c2cc[n+]([O-])c3cc(Cl)ccc23)cc1[N+](=O)[O-] [Compound 69]", "experimental-target": "U2OS (osteosarcoma)", "label": "HIGH"}
{"molecule": "COc1ccc(C(=O)OCCCS(=O)(=O)c2cc[n+]([O-])c3cc(Cl)ccc23)cc1 [Compound 73]", "experimental-target": "U2OS (osteosarcoma)", "label": "LOW"}
{"molecule": "Cc1ccc([N+](=O)[O-])c(C(=O)OCCCS(=O)(=O)c2cc[n+]([O-])c3cc(Cl)ccc23)c1 [Compound 80]", "experimental-target": "U2OS (osteosarcoma)", "label": "LOW"}

Class label required: COc1cc(OC)c(C(=O)OCCS(=O)(=O)c2cc[n+]([O-])c3cc(Cl)ccc23)cc1OC [Compound 66]
HIGH

Class label required: Cc1ccc([N+](=O)[O-])c(C(=O)OCCS(=O)(=O)c2cc[n+]([O-])c3cc(Cl)ccc23)c1 [Compound 70]
HIGH

Class label required: COc1ccc(OC)c(C(=O)OCCCS(=O)(=O)c2cc[n+]([O-])c3cc(Cl)ccc23)c1 [Compound 75]
MEDIUM

Class label required: Cc1cc(C)cc(C(=O)OCCCS(=O)(=O)c2cc[n+]([O-])c3cc(Cl)ccc23)c1 [Compound 81]
LOW

Class label required: COc1ccccc1C(=O)OCCCS(=O)(=O)c1cc[n+]([O-])c2cc(Cl)ccc12 [Compound 78]
MEDIUM

Data provenance is paper PMC9607427.
